System: 786-0
Experiment Notes: NCI tumour cell line growth inhibition, 48 h
Activity calls are given as the source filed them. Rule as the data show it: active = GI50 up to about 1.1 µM and inactive = higher.

- Compound: "O=NN(CCCl)C(=O)NCCCl"
  GI50: "42.3 µM (inactive)"
- Compound: "O=C(Cc1ccccc1)NN1C(=O)C(Cl)C1c1cc(Br)cc(Br)c1O (stereo not given)"
  GI50: "10.1 µM (inactive)"
- Compound: "CC1(C)C(=O)N(c2ccccc2)C(=O)N1c1nc2ccccc2[nH]1"
  GI50: "> 100 µM (inactive)"
- Compound: "CC[C@]12C=CCN3CCC4(c5cc(/N=N/c6ccc([N+](=O)[O-])cc6)c(OC)cc5N(C)[C@H]4[C@@](O)(C(=O)OC)[C@@H]1OC(C)=O)[C@@H]32 (stereo not given in full)"
  GI50: "11.8 µM (inactive)"
- Compound: "CCCCCCC(O)C/C=C/CCCCCC/C(C(=O)OC)=C(/O)C(=O)OCC (stereo not given)"
  GI50: "> 100 µM (inactive)"

* * *

System: A549
Experiment Notes: NCI tumour cell line growth inhibition, 48 h
Activity calls are given as the source filed them. No stated cut-off is given here; in the data, active = GI50 up to about 1.1 µM and inactive = higher.
Value Type: GI50

- Compound: "Cc1cc(N(CCC#N)CCC#N)ccc1C(=N/NC(=O)c1cc(Cl)ccc1O)/N=N/c1cccc([N+](=O)[O-])c1"
  Tested On: "A549"
  Endpoint Value: "28 µM (inactive)"
- Compound: "CCOC(CN(C)C(=S)Nc1cccc2ccccc12)OCC"
  Tested On: "A549"
  Endpoint Value: "> 10 µM (inactive)"
- Compound: "O=C(Nc1cnc(O)nc1O)C(Cl)Cl"
  Tested On: "A549"
  Endpoint Value: "> 100 µM (inactive)"
- Compound: "O=C(Cc1ccccc1)NN1C(=O)C(Cl)C1c1cc(Br)cc(Br)c1O (configuration not stated)"
  Tested On: "A549"
  Endpoint Value: "15.9 µM (inactive)"
- Compound: "N#CCCC(C=O)(CCC#N)CCC#N"
  Tested On: "A549"
  Endpoint Value: "> 100 µM (inactive)"
- Compound: "C/C(=N\\NC(=S)N1CCOCC1)c1nc2cccnc2[nH]1"
  Tested On: "A549"
  Endpoint Value: "30.7 µM (inactive)"
- Compound: "CC(C)C(=O)[C@@]1(C)SC[C@H]2CCN=C21"
  Tested On: "A549"
  Endpoint Value: "> 100 µM (inactive)"

* * *

Tested on: OVCAR-8
Experiment Notes: NCI tumour cell line growth inhibition, 48 h
Active and inactive are the calls of the source. Rule as the data show it: active = GI50 up to about 1.1 µM and inactive = higher.
GI50 values, listed per item

- Compound: "[N-]=[N+]=Nc1ncnc2c1sc(=S)n2-c1ccccc1"
  GI50: "> 100 µM (inactive)"
- Compound: "O=c1c2cc3c(cc2[nH]c2ncccc12)OCO3"
  GI50: "> 10 µM (inactive)"
- Compound: "COc1ccc2c(=O)c3c([nH]c2c1)OCC3=O"
  GI50: "> 100 µM (inactive)"
- Compound: "C#CN1C(=O)c2c(c(-c3ccccc3)c(-c3ccc(Oc4ccc(-c5c(-c6ccccc6)c6c(c(-c7ccccc7)c5-c5ccccc5)C(=O)N(C#C)C6=O)cc4)cc3)c(-c3ccccc3)c2-c2ccccc2)C1=O"
  GI50: "> 100 µM (inactive)"
- Compound: "CCCCN(Cc1ccccc1)/C(=N/C#N)N(Cc1ccccc1)Cc1ccccc1"
  GI50: "27.9 µM (inactive)"
- Compound: "C=C(Cl)C(Cl)(CBr)CCC(Br)C(C)(C)Br (centres undefined)"
  GI50: "4.3 µM (inactive)"
- Compound: "C[C@H](N)C(=O)Nc1ccc(-c2nc3ccccc3s2)cc1Cl"
  GI50: "26 µM (inactive)"
- Compound: "CCN(CC)CCCNc1nc(=O)[nH]c(C)c1C(=O)Nc1c2ccccc2nc2ccccc12"
  GI50: "21.7 µM (inactive)"
- Compound: "Cc1ccsc1/C=N/Nc1ncccn1"
  GI50: "> 100 µM (inactive)"
- Compound: "O=C(/C=C/c1cc(Cl)cc(Cl)c1O)c1cccc(O)c1"
  GI50: "32.1 µM (inactive)"
- Compound: "C#CCC(N)(CO)C(=O)O (centres undefined)"
  GI50: "> 100 µM (inactive)"
- Compound: "COc1c2c(cc3oc(=O)ccc13)OC(C)(C)C=C2 [XANTHOXYLETIN]"
  GI50: "24.2 µM (inactive)"
- Compound: "CC(=O)O[C@H]1C(=O)[C@@]2(C)C(C(OC(=O)c3ccccc3)[C@]3(O)CC(OC(=O)C(O)C(NC(=O)c4ccccc4)c4cccc(Cl)c4)C(C)=C1C3(C)C)[C@]1(OC(C)=O)CO[C@@H]1C[C@@H]2O (some centres undefined)"
  GI50: "5.92 µM (inactive)"
- Compound: "N#Cc1cc2c(n(C3OC(CO)C(O)C(O)C3O)c1=S)CCCCC2 (centres undefined)"
  GI50: "> 100 µM (inactive)"
- Compound: "CC(C)(C)OC(=O)CCCCCNC(=O)CCCCCNC(=O)CCC(CN(CC(=O)OCc1ccccc1)CC(=O)OCc1ccccc1)N(CC(=O)OCc1ccccc1)CC(=O)OCc1ccccc1 (centres undefined)"
  GI50: "> 100 µM (inactive)"
- Compound: "CCCCOc1ccc(NC(=N)Nc2ccc(Cl)cc2)cc1"
  GI50: "11.2 µM (inactive)"
- Compound: "COc1cc(/C=C/C(=O)OC2C(O)C3CC(OC(=O)c4cc(OC)c(OC)c(OC)c4)CC2N3C)cc(OC)c1OC (centres undefined)"
  GI50: "12.5 µM (inactive)"
- Compound: "COc1ccc(/C=C2/N/C(=N\\N=C/C(O)C(O)C(O)C(O)CO)NC2=O)cc1 (centres undefined)"
  GI50: "> 100 µM (inactive)"
- Compound: "COC(=O)C(Cc1ccccc1)C(=O)NC(CNC(=O)OCc1ccccc1)C(=O)OCc1ccccc1 (centres undefined)"
  GI50: "63.1 µM (inactive)"
